kinact/KI by entry:
Biological target: cathepsin G (Homo sapiens, UniProt P08311)
Construct: from tissue; host or cells: human leukocytes
Sequence (P08311 21-255): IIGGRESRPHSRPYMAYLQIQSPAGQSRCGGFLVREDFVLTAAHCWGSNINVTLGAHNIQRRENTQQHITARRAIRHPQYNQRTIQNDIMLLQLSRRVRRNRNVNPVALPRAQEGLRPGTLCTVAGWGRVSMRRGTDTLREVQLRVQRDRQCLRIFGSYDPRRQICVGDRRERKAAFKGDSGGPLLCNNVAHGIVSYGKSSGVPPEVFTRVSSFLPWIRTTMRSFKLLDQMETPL
Assay: Inactivation of cathepsin G
Assay type: biochemical
Conditions: pH 7.5; Table XII; 2.5% Me2SO, 25° C; [I] 8.7-87 μM; read-out: kobs/[I]
measurement type: kinact/KI (M⁻¹ s⁻¹)

smiles record: CCCOc1oc(=O)c2cc(NC(=O)NCC)ccc2c1Cl
measurement type: kinact/KI
recorded measurement: 166
--
smiles record: CCCOc1oc(=O)c2cc(NC(=O)CCc3ccccc3)ccc2c1Cl
measurement type: kinact/KI
recorded measurement: 20
--
smiles record: CCCOc1oc(=O)c2cc(NC(=O)c3cccc([N+](=O)[O-])c3)ccc2c1Cl
measurement type: kinact/KI
recorded measurement: 4
--
smiles record: CCCOc1oc(=O)c2cc(NC(=O)OCC)ccc2c1Cl
measurement type: kinact/KI
recorded measurement: 138
--
smiles record: CCCOc1oc(=O)c2cc(NC(=O)[C@@H](NC(=O)OC(C)(C)C)C(C)C)ccc2c1Cl
measurement type: kinact/KI
recorded measurement: 17
--
smiles record: CCCOc1oc(=O)c2cc(NC(=O)CSC)ccc2c1Cl
measurement type: kinact/KI
recorded measurement: 28

---

Target: rat skin tryptase (Rattus norvegicus)
Construct: from tissue; host or cells: rat skin
Sequence (P27435 29-273): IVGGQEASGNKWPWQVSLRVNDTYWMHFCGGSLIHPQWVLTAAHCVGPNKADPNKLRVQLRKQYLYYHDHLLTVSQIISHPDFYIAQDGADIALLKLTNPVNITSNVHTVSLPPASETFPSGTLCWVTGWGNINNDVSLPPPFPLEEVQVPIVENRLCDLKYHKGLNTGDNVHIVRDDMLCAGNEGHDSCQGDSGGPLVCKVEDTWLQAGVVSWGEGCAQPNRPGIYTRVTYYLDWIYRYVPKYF
Assay: Inactivation rate of rat skin tryptase
Format: biochemical
Details: pH 7.5, Table IX; pH 7.5, 25° C; [I] 0.42-0.51 μM; read-out: kobs/[I]
measurement type: log10(kinact/KI) (log10 of the value in M⁻¹ s⁻¹)

compound: CC(C)(C)OC(=O)N[C@@H](Cc1ccccc1)C(=O)Nc1ccc2c(Cl)c(OCCCSC(=N)N)oc(=O)c2c1 [Boc-L-Phe--NH-CiTPrOIC]
recorded measurement: 5.18
//
compound: CC(=O)Nc1ccc2c(Cl)c(OCCCSC(=N)N)oc(=O)c2c1 [CH3 CONH-CiTPrOIC]
recorded measurement: 5.00
//
compound: N=C(N)SCCOc1oc(=O)c2cc(NC(=O)[C@H](N)Cc3ccccc3)ccc2c1Cl [D-Phe--NH-CiTEtOIC]
recorded measurement: 5.56
//
compound: N=C(N)SCCCOc1oc(=O)c2cc(NC(=O)CCc3ccccc3)ccc2c1Cl [PhCH2 CH2 CONH-CiTPrOIC]
recorded measurement: 5.23
//
compound: N=C(N)SCCCOc1oc(=O)c2cc(NC(=O)Nc3ccccc3)ccc2c1Cl [PhNHCONH-CiTPrOIC]
recorded measurement: 5.40
//
compound: N=C(N)SCCCOc1oc(=O)c2cc(N)ccc2c1Cl
recorded measurement: 4.59
//
compound: N=C(N)SCCOc1oc(=O)c2cc(NC(=O)[C@@H](N)Cc3ccccc3)ccc2c1Cl [L-Phe--NH-CiTEtOIC]
recorded measurement: 5.81

---

Biological target: bovine factor Xa (Bos taurus, UniProt P00743)
Construct: bovine factor Xa
Sequence (P00743 234-492 limits assumed): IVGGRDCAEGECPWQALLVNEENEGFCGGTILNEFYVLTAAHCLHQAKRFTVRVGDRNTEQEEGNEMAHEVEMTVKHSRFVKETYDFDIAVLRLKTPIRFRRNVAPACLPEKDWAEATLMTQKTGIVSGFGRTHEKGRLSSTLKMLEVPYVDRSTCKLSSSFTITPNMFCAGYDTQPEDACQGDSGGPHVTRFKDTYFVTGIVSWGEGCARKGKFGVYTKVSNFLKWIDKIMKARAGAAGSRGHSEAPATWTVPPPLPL
Sequence (P00743 41-180 partner limits assumed): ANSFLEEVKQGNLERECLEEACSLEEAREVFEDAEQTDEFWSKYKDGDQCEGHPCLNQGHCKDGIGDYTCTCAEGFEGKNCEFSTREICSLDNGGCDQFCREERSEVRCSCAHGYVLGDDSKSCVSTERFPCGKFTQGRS
Experiment: Inactivation rate of bovine factor Xa
Format: biochemical
Conditions: Table I; pH 7.5, 25° C; [I] 0.4 to 310 μM; read-out: kobs/[I]
# kinact/KI >= 2000 M⁻¹ s⁻¹ gives criterion met, anything below gives criterion not met

smiles record: N=C(N)SCCCOc1oc(=O)c2cc(N)ccc2c1Cl
category: criterion not met
--
smiles record: CCOc1cc2ccc(NC(=N)N)cc2c(=O)o1
category: criterion met
--
smiles record: COc1oc(=O)c2cc(NC(=N)N)ccc2c1Cl
category: criterion met
--
smiles record: COc1cc2ccc(NC(=N)N)cc2c(=O)o1
category: criterion not met
--
smiles record: NCCCOc1oc(=O)c2ccccc2c1Cl
category: criterion not met

---

Target: porcine pancreatic elastase (PPE) (Sus scrofa)
Construct: from tissue; host or cells: porcine pancreas (from the name)
Sequence (P00772 27-266): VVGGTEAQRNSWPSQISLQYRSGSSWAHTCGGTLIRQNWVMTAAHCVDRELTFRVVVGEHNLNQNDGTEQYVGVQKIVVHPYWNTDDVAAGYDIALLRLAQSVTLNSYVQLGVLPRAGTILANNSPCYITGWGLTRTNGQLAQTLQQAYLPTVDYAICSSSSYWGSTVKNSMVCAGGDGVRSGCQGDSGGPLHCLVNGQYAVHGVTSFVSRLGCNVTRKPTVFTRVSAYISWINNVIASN
Test: Inactivation of porcine pancreatic elastase (PPE)
Assay type: biochemical
Settings: Table XI; pH 7.5, 25° C; [I] 6.3-600 μM, per line; read-out: kobs/[I]
measurement type: log10(kinact/KI) (log10 of the value in M⁻¹ s⁻¹)

compound: CCNC(=O)Nc1ccc2c(Cl)c(OC)oc(=O)c2c1
log10(kinact/KI): 3.23
--
compound: COc1oc(=O)c2cc(NC(=O)N(CCc3ccccc3)Cc3ccccc3)ccc2c1Cl
log10(kinact/KI): 1.23
--
compound: COc1oc(=O)c2cc(NC(=O)c3ccccc3C(=O)O)ccc2c1Cl
log10(kinact/KI): 3.43
--
compound: COc1oc(=O)c2cc(NC(=O)OCc3ccccc3)ccc2c1Cl
log10(kinact/KI): 2.41
--
compound: COc1oc(=O)c2cc(NC(=O)NC(C)C)ccc2c1Cl
log10(kinact/KI): 3.36
--
compound: CCNC(=S)Nc1ccc2c(Cl)c(OCC)oc(=O)c2c1
log10(kinact/KI): 3.62
--
compound: COc1oc(=O)c2cc(NC(=O)Nc3ccccc3)ccc2c1Cl
log10(kinact/KI): 3.86
--
compound: CCOC(=O)Nc1ccc2c(Cl)c(OCC)oc(=O)c2c1
log10(kinact/KI): 3.54
--
compound: COc1oc(=O)c2cc(NC(=O)CC(CC(=O)O)c3ccccc3)ccc2c1Cl (stereo not shown)
log10(kinact/KI): 3.49
--
compound: CNC(=O)Nc1ccc2c(Cl)c(OC)oc(=O)c2c1
log10(kinact/KI): 3.11

---

kinact/KI by entry:
Biological target: recombinant human tissue plasminogen activator (Homo sapiens)
Sequence (P00750 36-562): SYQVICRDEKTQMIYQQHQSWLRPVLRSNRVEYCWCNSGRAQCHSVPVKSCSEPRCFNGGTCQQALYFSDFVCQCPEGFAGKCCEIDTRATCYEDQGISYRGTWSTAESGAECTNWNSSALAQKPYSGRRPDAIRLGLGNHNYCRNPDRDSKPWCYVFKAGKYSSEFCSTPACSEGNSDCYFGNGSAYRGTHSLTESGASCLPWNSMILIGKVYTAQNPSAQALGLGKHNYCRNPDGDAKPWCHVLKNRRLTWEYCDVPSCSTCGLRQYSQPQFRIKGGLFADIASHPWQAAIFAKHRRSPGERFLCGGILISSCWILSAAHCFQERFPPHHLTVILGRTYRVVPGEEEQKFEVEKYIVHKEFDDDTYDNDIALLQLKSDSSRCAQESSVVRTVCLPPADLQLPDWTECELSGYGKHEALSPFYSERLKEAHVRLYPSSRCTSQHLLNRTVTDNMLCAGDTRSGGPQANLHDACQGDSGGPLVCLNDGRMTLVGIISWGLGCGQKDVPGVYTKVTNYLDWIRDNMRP
Assay: Inactivation rate of recombinant human tissue plasminogen activator
Type: biochemical
Conditions: pH 7.5, Table VI; pH 7.5, 25° C; [I] 7 to 44 μM; read-out: kobs/[I]

compound: N=C(N)Nc1ccc2c(Cl)c(OCCc3ccccc3)oc(=O)c2c1
kinact/KI / M⁻¹ s⁻¹: 6780

compound: N=C(N)SCCCOc1oc(=O)c2cc(N)ccc2c1Cl
kinact/KI / M⁻¹ s⁻¹: 5690

compound: NCCCOc1oc(=O)c2ccccc2c1Cl [3-(3-aminopropoxy)-4-chloroisocoumarin]
kinact/KI / M⁻¹ s⁻¹: 94

compound: N=C(N)SCCCOc1oc(=O)c2ccccc2c1Cl
kinact/KI / M⁻¹ s⁻¹: 4690

compound: CCOc1oc(=O)c2cc(NC(=N)N)ccc2c1Cl [7-guanidino-3-ethoxy-4-chloroisocoumarin, 7-guanidino-4-chloro-3-ethoxyisocoumarin]
kinact/KI / M⁻¹ s⁻¹: 7720

compound: COc1oc(=O)c2cc(NC(=N)N)ccc2c1Cl
kinact/KI / M⁻¹ s⁻¹: 4420

compound: O=c1oc(Cl)c(Cl)c2ccccc12 [3,4-dichloroisocoumarin, reference compound]
kinact/KI / M⁻¹ s⁻¹: 73

---

Molecular target: cathepsin G (Homo sapiens, UniProt P08311)
Construct: from tissue; host or cells: human leukocytes
Sequence (P08311 21-255): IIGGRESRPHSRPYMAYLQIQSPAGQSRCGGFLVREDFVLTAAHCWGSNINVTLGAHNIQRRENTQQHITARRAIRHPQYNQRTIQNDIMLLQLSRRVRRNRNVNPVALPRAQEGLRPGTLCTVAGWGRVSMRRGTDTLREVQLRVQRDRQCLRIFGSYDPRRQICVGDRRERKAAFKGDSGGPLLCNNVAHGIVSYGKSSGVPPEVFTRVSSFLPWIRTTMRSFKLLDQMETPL
Experiment: Inactivation of cathepsin G
Type: biochemical
Details: Table X; pH 7.5, 25° C; [I] 33-46 μM; read-out: kobs/[I]

smiles record: C[C@H](NC(=O)Nc1ccc2c(Cl)c(OCCSC(=N)N)oc(=O)c2c1)c1ccccc1
target system: cathepsin G (Homo sapiens, UniProt P08311)
kinact/KI (M⁻¹ s⁻¹): 35
//
smiles record: C[C@@H](NC(=O)Nc1ccc2c(Cl)c(OCCSC(=N)N)oc(=O)c2c1)c1ccccc1
target system: cathepsin G (Homo sapiens, UniProt P08311)
kinact/KI (M⁻¹ s⁻¹): 145
//
smiles record: CC(C)(C)OC(=O)N[C@H](Cc1ccccc1)C(=O)Nc1ccc2c(Cl)c(OCCSC(=N)N)oc(=O)c2c1
target system: cathepsin G (Homo sapiens, UniProt P08311)
kinact/KI (M⁻¹ s⁻¹): 35
//
smiles record: N=C(N)SCCOc1oc(=O)c2cc(NC(=O)Nc3ccccc3)ccc2c1Cl
target system: cathepsin G (Homo sapiens, UniProt P08311)
kinact/KI (M⁻¹ s⁻¹): 100

---

kinact/KI by entry:
Target: chymotrypsin (Bos taurus)
Test: Inactivation of chymotrypsin
Assay type: biochemical, bovine
Conditions: Table X; pH 7.5, 25° C; [I] 0.9-43 μM; read-out: kobs/[I]
measurement type: kinact/KI

smiles record: C[C@@H](NC(=O)Nc1ccc2c(Cl)c(OCCSC(=N)N)oc(=O)c2c1)c1ccccc1
recorded measurement: 360 M⁻¹ s⁻¹
--
smiles record: C[C@H](NC(=O)Nc1ccc2c(Cl)c(OCCSC(=N)N)oc(=O)c2c1)c1ccccc1
recorded measurement: 260 M⁻¹ s⁻¹
--
smiles record: CC(=O)Nc1ccc2c(Cl)c(OCCCSC(=N)N)oc(=O)c2c1
recorded measurement: 5200 M⁻¹ s⁻¹

Measured values drawn from patent US5324648A for this set.
